These measurements were taken from paper PMC3713097.

Kindly supply the reported ΔAmax values for the records listed here.
Biological target: UniProtKB Q16696
Sequence (Q16696 with tags, fused parts or gaps limits assumed): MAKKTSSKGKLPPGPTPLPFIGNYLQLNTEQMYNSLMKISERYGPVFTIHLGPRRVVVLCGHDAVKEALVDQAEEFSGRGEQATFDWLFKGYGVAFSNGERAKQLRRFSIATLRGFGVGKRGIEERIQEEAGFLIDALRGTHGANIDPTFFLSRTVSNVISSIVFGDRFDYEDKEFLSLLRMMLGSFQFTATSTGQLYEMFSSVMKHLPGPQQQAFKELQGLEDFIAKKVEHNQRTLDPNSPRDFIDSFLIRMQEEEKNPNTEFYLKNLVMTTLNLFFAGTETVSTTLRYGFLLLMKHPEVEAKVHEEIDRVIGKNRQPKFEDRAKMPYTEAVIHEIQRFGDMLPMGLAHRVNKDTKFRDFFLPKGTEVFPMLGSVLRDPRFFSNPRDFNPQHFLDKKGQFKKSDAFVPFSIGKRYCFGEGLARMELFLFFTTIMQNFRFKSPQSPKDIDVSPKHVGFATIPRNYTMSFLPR
Test: Spectral binding titration with purified P450 2A13
Conditions: P450 2A13, Type I spectra; ± SE
Please state the value as a number alone, without comment.

Record summary for `O=[N+]([O-])c1ccc2ccc3cccc4ccc1c2c34` : reported ΔAmax = 0.055

OC1C=C2c3ccccc3-c3cccc(c32)C1O (stereo not shown) [FA-2,3-diol, 2,3-dihydroxy-2,3-dihydrofluoranthene] yielded ΔAmax of 0.052

Value of measured ΔAmax for the entry c1ccc2c(c1)ccc1ccc3ccccc3c12 [B[c]Phe, benzo[c]phenanthrene] : 0.049

Sure, the documented ΔAmax for `c1cc2c3c(cccc3c1)CC2` is 0.074

---

molecular target: P450 2A6 (Homo sapiens, UniProt P11509); details: 10 nM P450, 2.5 µM procarcinogen, means ± range of duplicate experiments
Sequence (P11509 whole entry): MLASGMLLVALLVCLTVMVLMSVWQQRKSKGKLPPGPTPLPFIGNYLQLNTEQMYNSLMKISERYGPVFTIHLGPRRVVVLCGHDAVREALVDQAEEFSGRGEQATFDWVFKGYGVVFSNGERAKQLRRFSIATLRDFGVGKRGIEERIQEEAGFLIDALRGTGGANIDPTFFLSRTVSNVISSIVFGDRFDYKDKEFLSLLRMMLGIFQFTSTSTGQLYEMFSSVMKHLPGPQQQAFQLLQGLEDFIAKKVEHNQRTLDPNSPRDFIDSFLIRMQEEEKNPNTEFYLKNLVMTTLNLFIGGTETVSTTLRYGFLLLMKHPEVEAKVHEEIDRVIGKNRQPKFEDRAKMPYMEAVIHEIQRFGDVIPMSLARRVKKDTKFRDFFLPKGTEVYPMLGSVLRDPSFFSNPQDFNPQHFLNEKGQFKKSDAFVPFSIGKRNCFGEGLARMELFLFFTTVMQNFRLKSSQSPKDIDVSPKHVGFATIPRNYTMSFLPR
Hi there, I'd appreciate the recorded activation of procarcinogens umu gene expression for every entry that follows.

Please fill in: activation of procarcinogens umu gene expression reported for Cn1c(N)nc2c3cccnc3ccc21 [IQ, 2-amino-3-methylimiidazo[4,5-f]quinoline] = 75 ± 11 units/min/nmol P450

Record CC(=O)Nc1ccc2c(c1)Cc1ccccc1-2 [2-AAF, 2-acetamidofluorene] , field activation of procarcinogens umu gene expression: <10 units/min/nmol P450

c1ccc2c(c1)ccc1ccc3ccccc3c12 [B[c]Phe, benzo[c]phenanthrene] has a reported activation of procarcinogens umu gene expression of 22 ± 8 units/min/nmol P450

Per the records, this compound ( OC1C=Cc2c(ccc3c2ccc2ccccc23)C1O (stereo not drawn) [chrysene-1,2-diol, 1,2-dihydroxy-1,2-dihydrochrysene] ) has activation of procarcinogens umu gene expression equal to <10 units/min/nmol P450

Lookup result for Cn1c(N)nc2ncc(-c3ccccc3)cc21 [PhIP] ; measured activation of procarcinogens umu gene expression: <10 units/min/nmol P450

// activation of procarcinogens umu gene expression value for OC1C=C2c3ccccc3-c3cccc(c32)C1O (stereo not drawn) [FA-2,3-diol, 2,3-dihydroxy-2,3-dihydrofluoranthene] : 36 ± 8 units/min/nmol P450

Item: OC1C=Cc2c(ccc3c4ccccc4c4ccccc4c23)C1O (stereo not drawn) [B[g]C-11,12-diol] | activation of procarcinogens umu gene expression: <10 units/min/nmol P450

Consider c1cc2c3c(cccc3c1)CC2 [acenaphthene] . Its measured activation of procarcinogens umu gene expression is <10 units/min/nmol P450

For this compound ( O=[N+]([O-])c1ccc2ccc3cccc4ccc1c2c34 [1-nitropyrene] ), measured activation of procarcinogens umu gene expression is <10 units/min/nmol P450

---

target: P450 1B1 (Homo sapiens, UniProt Q16678, L432V); test: Spectral binding titration with purified P450 1B1; conditions: read-out: Ks; P450 1B1, Reverse Type I spectra; 1.0 µM P450, pH 7.4; ± SE
Sequence (Q16678 whole entry L432V): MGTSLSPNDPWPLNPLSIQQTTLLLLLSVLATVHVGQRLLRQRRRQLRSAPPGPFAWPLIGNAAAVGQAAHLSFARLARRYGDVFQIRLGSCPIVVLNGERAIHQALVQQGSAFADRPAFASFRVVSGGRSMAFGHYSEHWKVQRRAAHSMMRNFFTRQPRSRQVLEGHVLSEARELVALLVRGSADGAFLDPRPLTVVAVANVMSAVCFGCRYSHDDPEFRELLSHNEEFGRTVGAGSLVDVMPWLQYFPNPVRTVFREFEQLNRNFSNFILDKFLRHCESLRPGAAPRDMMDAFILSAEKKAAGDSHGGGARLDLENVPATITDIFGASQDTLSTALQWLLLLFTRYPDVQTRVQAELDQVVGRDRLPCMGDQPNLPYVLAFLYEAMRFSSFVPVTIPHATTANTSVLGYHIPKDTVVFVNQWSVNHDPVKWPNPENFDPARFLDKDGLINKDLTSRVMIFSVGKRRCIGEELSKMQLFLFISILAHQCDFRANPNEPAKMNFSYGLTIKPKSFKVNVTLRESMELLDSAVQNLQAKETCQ
pKd: −log10 of the molar value.
metric_name: pKd

response.value for c1ccc2cc3c(ccc4ccccc43)cc2c1 [B[a]A, benz[a]anthracene] (field: pKd) = < 4.70

---

target: P450 1B1 (Homo sapiens, UniProt Q16678, L432V); assay: Spectral binding titration with purified P450 1B1; conditions: P450 1B1, Reverse Type I spectra; ± SE
metric_name: ΔAmax
Number only, please.

The measured ΔAmax associated with Cc1cc2ccccc2c2ccc3ccccc3c12 [5-methylchrysene] reads 0.044

Consider O=[N+]([O-])c1ccc2ccc3cccc4ccc1c2c34 [1-nitropyrene] . Its measured ΔAmax is 0.037

In plain terms, Nc1ccc2cc3ccccc3cc2c1 [2-AA, 2-aminoanthracene] has a documented ΔAmax of 0.085

Measured ΔAmax of OC1C=C2c3ccccc3-c3cccc(c32)C1O (centres unmarked) [FA-2,3-diol, 2,3-dihydroxy-2,3-dihydrofluoranthene] : 0.043

What the record says about OC1C=Cc2c(cc3ccc4cccc5ccc2c3c45)C1O (racemic) [( ± )B[a]P-7,8-diol, 7,8-dihydroxy-7,8-dihydrobenzo[a]pyrene] : ΔAmax is 0.024

Kindly note the recorded ΔAmax for Cc1c2c(c(C)c3ccccc13)C(O)C(O)c1ccccc1-2 (centres unmarked) [7,12-DMBA-5,6-diol] , which is 0.044

The reported ΔAmax of the compound CC(=O)Nc1ccc2c(c1)Cc1ccccc1-2 [2-AAF, 2-acetamidofluorene] was 0.035

The compound c1ccc2c(c1)ccc1ccc3ccccc3c12 [B[c]Phe, benzo[c]phenanthrene] showed ΔAmax equal to 0.039

---

target: P450 2A6 (Homo sapiens); test: Spectral binding titration with purified P450 2A6
metric_name: pKd
// field semantics: pKd = negative decimal log of concentration (mol/L)

Noted for C1=Cc2cccc3cccc1c23 [acenaphthylene] : its pKd reads 5.36

The molecule listed as c1cc2c3c(cccc3c1)CC2 [acenaphthene] shows pKd equal to 5.92

---

biological target: P450 1B1 (Homo sapiens, UniProt Q16678, L432V); conditions: pH 7.4
What activation of procarcinogens umu gene expression was measured for each of the following?
Quick reminder: number only, in units/min/nmol P450, skip the unit.

Lab note: measured activation of procarcinogens umu gene expression of Cc1c2ccccc2c(C)c2c1ccc1ccccc12 [7,12-DMBA, 7,12-dimethylbenz[a]anthracene] was 190

Notebook: Cc1cnc2ccc3c(nc(N)n3C)c2n1 [MeIQx] , activation of procarcinogens umu gene expression read as 87

Noted for Cc1c(N)nc(C)c2c1[nH]c1ccccc12 [Trp-P-1] : its activation of procarcinogens umu gene expression reads 910

---

Molecular target: human P450 2A13 (Homo sapiens)
Sequence (Q16696 31-494 limits assumed): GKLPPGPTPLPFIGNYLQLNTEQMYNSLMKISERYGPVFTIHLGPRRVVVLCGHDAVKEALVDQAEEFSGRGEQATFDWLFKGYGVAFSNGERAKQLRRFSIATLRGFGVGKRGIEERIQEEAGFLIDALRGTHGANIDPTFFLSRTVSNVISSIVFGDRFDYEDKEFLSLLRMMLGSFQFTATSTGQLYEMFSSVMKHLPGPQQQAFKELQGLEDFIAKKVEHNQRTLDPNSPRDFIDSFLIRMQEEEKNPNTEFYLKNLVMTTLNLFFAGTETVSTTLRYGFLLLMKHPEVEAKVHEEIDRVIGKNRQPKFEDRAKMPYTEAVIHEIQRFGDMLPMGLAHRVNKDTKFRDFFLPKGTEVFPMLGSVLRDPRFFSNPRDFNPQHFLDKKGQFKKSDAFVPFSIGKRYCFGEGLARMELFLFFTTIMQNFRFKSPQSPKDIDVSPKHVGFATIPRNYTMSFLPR
Settings: pH 7.4
metric_name: activation of procarcinogens umu gene expression

GET /value?item= `Cc1c(N)nc(C)c2c1[nH]c1ccccc12` &field=activation of procarcinogens umu gene expression returns 40 ± 9 units/min/nmol P450

The value of activation of procarcinogens umu gene expression measured for the molecule `c1ccc2c(c1)-c1cccc3cccc-2c13` turned out to be <10 units/min/nmol P450

Reported activation of procarcinogens umu gene expression of `Cc1cnc2ccc3c(nc(N)n3C)c2n1` : 110 ± 15 units/min/nmol P450

Data point: Cc1c2ccccc2c(C)c2c1ccc1ccccc12 [7,12-DMBA, 7,12-dimethylbenz[a]anthracene] ; activation of procarcinogens umu gene expression = <10 units/min/nmol P450

---

For each entry below, report its ΔAmax/ Ks value.
target: P450 1B1 (Homo sapiens, UniProt Q16678, L432V); test: Spectral binding titration with purified P450 1B1; conditions: P450 1B1, Reverse Type I spectra
Number only, please.

Value of measured ΔAmax/ Ks for the entry OC1C=Cc2c(cc3ccc4cccc5ccc2c3c45)C1O (racemic) [( ± )B[a]P-7,8-diol, 7,8-dihydroxy-7,8-dihydrobenzo[a]pyrene] : 0.0035

`Nc1ccc2cc3ccccc3cc2c1` has a reported ΔAmax/ Ks of 0.0026

The value of ΔAmax/ Ks measured for the compound `CC(=O)Nc1ccc2c(c1)Cc1ccccc1-2` turned out to be 0.0018

---

target: human P450 2A13 (Homo sapiens, UniProt Q16696); details: 10 nM P450, 2.5 µM procarcinogen, means ± range of duplicate experiments
metric_name: activation of procarcinogens umu gene expression (units/min/nmol P450)
Respond numerically; units are units/min/nmol P450 and should not be typed.

Param item: Cc1cc2ccccc2c2ccc3c(c12)C=CC(O)C3O (stereo not shown) [5MeCh-1,2-diol] ; param system: human P450 2A13 (Homo sapiens, UniProt Q16696); output activation of procarcinogens umu gene expression: 86

// assay human P450 2A13 (Homo sapiens, UniProt Q16696), entry OC1C=C2c3ccccc3-c3cccc(c32)C1O (stereo not shown) [FA-2,3-diol, 2,3-dihydroxy-2,3-dihydrofluoranthene] , activation of procarcinogens umu gene expression value = 88
